Origin of values: patent US10639299B2

# assay_system: CaSR (Homo sapiens)
# Sequence (P41180 20-1078): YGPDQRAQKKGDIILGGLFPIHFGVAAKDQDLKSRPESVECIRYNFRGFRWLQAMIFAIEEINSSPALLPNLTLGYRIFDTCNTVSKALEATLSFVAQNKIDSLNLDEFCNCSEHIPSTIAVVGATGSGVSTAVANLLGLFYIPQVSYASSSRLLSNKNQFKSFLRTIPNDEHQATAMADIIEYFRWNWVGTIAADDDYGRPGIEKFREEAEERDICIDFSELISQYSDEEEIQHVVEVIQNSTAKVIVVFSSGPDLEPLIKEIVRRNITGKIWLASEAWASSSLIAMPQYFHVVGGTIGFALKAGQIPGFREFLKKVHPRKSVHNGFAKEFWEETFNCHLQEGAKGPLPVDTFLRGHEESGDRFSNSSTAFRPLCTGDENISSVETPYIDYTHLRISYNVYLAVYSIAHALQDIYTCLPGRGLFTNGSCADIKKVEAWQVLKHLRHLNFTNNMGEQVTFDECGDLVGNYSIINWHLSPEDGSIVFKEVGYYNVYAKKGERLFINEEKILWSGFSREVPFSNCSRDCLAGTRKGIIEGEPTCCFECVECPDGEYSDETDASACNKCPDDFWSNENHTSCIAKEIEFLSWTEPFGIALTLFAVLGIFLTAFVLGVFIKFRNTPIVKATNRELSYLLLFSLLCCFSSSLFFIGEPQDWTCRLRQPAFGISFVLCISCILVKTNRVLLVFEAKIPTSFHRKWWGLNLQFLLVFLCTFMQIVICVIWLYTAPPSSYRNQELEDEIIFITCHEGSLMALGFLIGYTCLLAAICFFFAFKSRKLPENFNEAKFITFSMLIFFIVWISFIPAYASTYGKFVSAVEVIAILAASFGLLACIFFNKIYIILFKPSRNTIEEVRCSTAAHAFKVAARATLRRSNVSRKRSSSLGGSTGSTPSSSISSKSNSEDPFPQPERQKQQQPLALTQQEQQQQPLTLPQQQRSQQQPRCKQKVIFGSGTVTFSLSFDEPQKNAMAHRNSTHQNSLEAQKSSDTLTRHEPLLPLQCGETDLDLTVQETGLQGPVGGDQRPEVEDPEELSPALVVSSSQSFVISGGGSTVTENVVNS
# protocol_summary: [Ca^2+]i signaling (Fura-2) evoked by [Mg^2+]o/[Ca^2+]o in CaSR-expressing HEK293 cells (5001 cell population assay)
# Assay type: cell-based
# Set-up: expressed in transfected cells
# condition_details: determined indirectly through the EC50 change of [Mg^2+]o at different TNCA concentrations; 0.5 mM [Ca^2+]o; read-out: apparent EC50 of TNCA as co-agonist
pEC50: −log10 of the molar value.
readout_kind: pEC50

// lookup pEC50 for `O=C(O)[C@@H]1Cc2c([nH]c3ccccc23)CN1`
≤ 5.70

====

# assay_system: ECD of CaSR (Homo sapiens)
# Construct: made in house; host or cells: HEK293S (GnTI-) suspension culture, secreted
# Sequence (P41180 20-612): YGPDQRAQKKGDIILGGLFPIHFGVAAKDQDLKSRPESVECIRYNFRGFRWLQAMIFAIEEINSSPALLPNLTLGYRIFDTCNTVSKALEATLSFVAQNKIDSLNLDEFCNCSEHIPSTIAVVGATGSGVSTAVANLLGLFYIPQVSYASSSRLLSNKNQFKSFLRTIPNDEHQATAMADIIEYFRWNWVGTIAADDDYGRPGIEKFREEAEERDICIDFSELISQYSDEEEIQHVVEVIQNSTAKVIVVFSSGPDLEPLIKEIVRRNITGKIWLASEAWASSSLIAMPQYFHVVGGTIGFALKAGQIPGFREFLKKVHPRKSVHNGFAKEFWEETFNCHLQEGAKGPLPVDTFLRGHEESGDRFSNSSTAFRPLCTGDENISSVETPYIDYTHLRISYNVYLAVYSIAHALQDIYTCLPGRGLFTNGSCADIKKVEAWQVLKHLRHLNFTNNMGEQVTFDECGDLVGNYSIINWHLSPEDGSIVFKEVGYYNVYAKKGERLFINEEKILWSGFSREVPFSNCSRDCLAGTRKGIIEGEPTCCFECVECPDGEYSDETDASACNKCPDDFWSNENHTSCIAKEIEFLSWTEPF
# protocol_summary: Ca2+ binding to the ECD by Trp fluorescence signal change
# condition_details: first phase; read-out: Kd, 2-phase Hill equation
readout_kind: pKd
Conceptually, pKd converts a concentration in mol/L into minus its log10.

// lookup pKd for `[Ca+2]`
3.05
